// binding signal lookup, one value per entry
biological target: ZNF721 DBD1 (Homo sapiens, UniProt Q8TF20-2 29-461); assay: HT-SELEX; 20 mM HEPES pH 7, 140 mM KCl, 5 mM NaCl, 1 mM K2HPO4, 2 mM MgSO4, 100 uM EGTA, ZnSO4, 0.1% Tween20; room temperature, 1 h; high values mean tight binding; settings: protein: ivt; tags: eGFP (N-terminal); dsDNA, one strand shown
Sequence (Q8TF20 17-449): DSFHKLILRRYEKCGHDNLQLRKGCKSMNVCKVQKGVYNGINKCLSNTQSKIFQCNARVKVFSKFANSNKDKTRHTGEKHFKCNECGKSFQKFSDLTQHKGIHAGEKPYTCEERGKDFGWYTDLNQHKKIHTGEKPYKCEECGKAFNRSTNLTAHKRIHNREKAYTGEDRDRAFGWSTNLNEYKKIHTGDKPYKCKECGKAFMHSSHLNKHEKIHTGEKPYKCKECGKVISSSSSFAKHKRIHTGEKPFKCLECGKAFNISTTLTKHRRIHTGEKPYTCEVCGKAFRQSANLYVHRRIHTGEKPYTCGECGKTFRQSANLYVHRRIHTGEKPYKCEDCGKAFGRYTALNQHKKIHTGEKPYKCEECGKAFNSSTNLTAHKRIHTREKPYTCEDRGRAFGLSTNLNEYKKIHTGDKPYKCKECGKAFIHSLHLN
Reply with the number, then its unit.

Record excerpt, results attached:
1) AAAAAGCATA | 0.0303 relative 10-mer count
2) ACGCTTCATA | 0.2 relative 10-mer count
3) CACCCGCCCA | 0.00358 relative 10-mer count
4) CCCCCATCCC | 0.00638 relative 10-mer count
5) CGCCCCACCA | 0.00362 relative 10-mer count
6) CACCACCCCA | 0.00803 relative 10-mer count

Return reported binding signal; argument: `CGAAAAAAAA`
0.0159 relative 10-mer count

Record: `CCCCCCCTCC`
0.00982 relative 10-mer count

Can you handle `TCCCCACCCA` next?
0.00495 relative 10-mer count

// repeat for `CCCCTCCCGC` and report
0.00665 relative 10-mer count

Also `ACCACCCCCA` ?
0.00505 relative 10-mer count

Try this sequence next: `CCCGCTCCCC`
0.00527 relative 10-mer count

Repeat for the following sequence: `GAAGCGTACC`
0.0792 relative 10-mer count
